Target: r-P27S rURAT1 point mutant (Rattus norvegicus, UniProt Q3ZAV1, P27S)
Sequence (Q3ZAV1 whole entry P27S): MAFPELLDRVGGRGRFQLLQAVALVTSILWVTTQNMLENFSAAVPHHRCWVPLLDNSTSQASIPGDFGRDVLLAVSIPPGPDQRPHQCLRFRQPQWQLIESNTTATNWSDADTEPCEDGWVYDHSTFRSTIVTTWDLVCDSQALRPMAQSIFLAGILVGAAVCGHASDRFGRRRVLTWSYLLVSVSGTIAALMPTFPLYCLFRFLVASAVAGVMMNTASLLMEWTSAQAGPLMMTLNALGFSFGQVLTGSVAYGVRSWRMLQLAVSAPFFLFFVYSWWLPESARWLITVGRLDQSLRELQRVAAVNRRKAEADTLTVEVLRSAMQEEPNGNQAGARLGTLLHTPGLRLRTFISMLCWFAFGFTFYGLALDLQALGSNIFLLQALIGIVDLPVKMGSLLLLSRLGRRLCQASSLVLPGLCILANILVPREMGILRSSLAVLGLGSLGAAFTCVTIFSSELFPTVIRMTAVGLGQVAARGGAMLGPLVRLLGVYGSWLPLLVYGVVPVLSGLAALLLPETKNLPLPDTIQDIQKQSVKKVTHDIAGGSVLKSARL
Experiment: URAT1 uric acid transport activity assay
Type: cell-based
MEASURED_QUANTITY: pIC50
Would you please state pIC50, meaning minus log10 of the concentration in mol/L, as a bare number?

Value sought: pIC50, system r-P27S rURAT1 point mutant (Rattus norvegicus, UniProt Q3ZAV1, P27S), item CCc1oc2ccccc2c1C(=O)c1cc(Br)c(O)c(Br)c1 [benzbromarone] . Result: 4.80

----------
Target: r-V474M rURAT1 point mutant (Rattus norvegicus, UniProt Q3ZAV1, V474M)
Construct: expressed in transfected cells; host or cells: HEK-293T
Sequence (Q3ZAV1 whole entry V474M): as the sequence (Q3ZAV1 whole entry P27S) above, with S27P, V474M counted along it
Experiment: URAT1 uric acid transport activity assay
Type: cell-based
MEASURED_QUANTITY: pIC50
For clarity, pIC50 is expressed as the negative log10 of concentration in mol/L.

Noted for CCc1oc2ccccc2c1C(=O)c1cc(Br)c(O)c(Br)c1 [benzbromarone] : its pIC50 reads 4.77
